# System: C3AKF1 mice, osteogenic sarcoma HE10734 s.c., tumor weight T/C
# ASSAY_METHOD_TEXT: NCI In Vivo Anticancer Drug Screen. Data for tumor model Osteogenic Sarcoma HE 10734 (subcutaneous) in C3AKF1 (CHKRF1) mice
# REPORTED_CONDITIONS: endpoint: mean tumor weight; dose: 30.0 mg/kg/injection; schedule: Q01DX010 (ip); vehicle: carboxymethylcellulose (CMC); higher = larger tumour
Inconclusive results are not listed.
ASSAY_READOUT: T/C

Could you tell me which T/C is on file for "CCCCn1cnc2c(SC)nc(N)nc21" ? 69 % of control

And then "CCCCCCC(=O)NC1=C(N2CC2)C(=O)C(NC(=O)CCCCCC)=C(N2CC2)C1=O" , what is it? 83 % of control

And then "CC(=O)Nc1ccc(NC(=O)c2ccc([As](O)O)cc2)cc1" , what is it? 111 % of control

And then "NC(N)=N/N=C/C=N/N=C(N)N" , what is it? 81 % of control

----------
# Test system: C3AKF1 mice, osteogenic sarcoma HE10734 s.c., tumor weight T/C
# ASSAY_METHOD_TEXT: NCI In Vivo Anticancer Drug Screen. Data for tumor model Osteogenic Sarcoma HE 10734 (subcutaneous) in C3AKF1 (CHKRF1) mice
# REPORTED_CONDITIONS: endpoint: mean tumor weight; dose: 12.5 mg/kg/injection; schedule: Q01DX010 (ip); vehicle: carboxymethylcellulose (CMC); higher = larger tumour
Results filed as inconclusive are left out.
Known T/C of a selection of molecules

[
  {
    "MOLECULE": "O=C(O)CC(O)(CC(=O)O)C(=O)O.[Ga]",
    "T/C": "84 % of control"
  },
  {
    "MOLECULE": "Cc1ccc(N2CCN(CCCN3CCN(c4ccc(Cl)cc4)CC3)CC2)cc1",
    "T/C": "77 % of control"
  },
  {
    "MOLECULE": "Nc1nc(SCc2ccccc2Cl)c2ncn(C3OC(CO)C(O)C3O)c2n1 (centres undefined)",
    "T/C": "90 % of control"
  }
]

Consider the record given below.
Could you tell me which T/C is on file for "O=C(c1ccc(C(=O)N2CC2)cc1)N1CC1" ? 118 % of control

----------
Known T/C of a selection of molecules
# Test system: C3AKF1 mice, osteogenic sarcoma HE10734 s.c., tumor weight T/C
# ASSAY_METHOD_TEXT: NCI In Vivo Anticancer Drug Screen. Data for tumor model Osteogenic Sarcoma HE 10734 (subcutaneous) in C3AKF1 (CHKRF1) mice
# REPORTED_CONDITIONS: endpoint: mean tumor weight; dose: 1000.0 mg/kg/injection; schedule: Q01DX010 (ip); vehicle: saline; higher = larger tumour
# Method: The antitumor activity of compounds was measured in mice bearing transplantable tumors. Survival or tumor size were measured and the results are expressed as the measurement made in the treated group (T) divided by the measurement made in the vehicle treated control group (C). The tumor model used in this assay is Osteogenic Sarcoma HE 10734 (subcutaneous) in C3AKF1 (CHKRF1) mice
Records with an inconclusive call do not appear.

[
  {
    "MOLECULE": "Nc1nc(SCc2ccccc2)c2ncn(C3CCCC3)c2n1",
    "OBS_VALUE": "63 % of control"
  },
  {
    "MOLECULE": "CS(=O)(=O)OCC(O)C(O)COS(C)(=O)=O (centres undefined)",
    "OBS_VALUE": "101 % of control"
  },
  {
    "MOLECULE": "CCOC(=O)NC",
    "OBS_VALUE": "27 % of control"
  }
]

Consider the record given below.
Could you tell me which T/C is on file for "Nc1nc(SCc2ccc([N+](=O)[O-])cc2)c2[nH]cnc2n1" ? 59 % of control

Ref: PubChem BioAssay AID310
